Biological target: General amino-acid permease GAP1 (Saccharomyces cerevisiae) (UniProt P19145)
Sequence (whole entry): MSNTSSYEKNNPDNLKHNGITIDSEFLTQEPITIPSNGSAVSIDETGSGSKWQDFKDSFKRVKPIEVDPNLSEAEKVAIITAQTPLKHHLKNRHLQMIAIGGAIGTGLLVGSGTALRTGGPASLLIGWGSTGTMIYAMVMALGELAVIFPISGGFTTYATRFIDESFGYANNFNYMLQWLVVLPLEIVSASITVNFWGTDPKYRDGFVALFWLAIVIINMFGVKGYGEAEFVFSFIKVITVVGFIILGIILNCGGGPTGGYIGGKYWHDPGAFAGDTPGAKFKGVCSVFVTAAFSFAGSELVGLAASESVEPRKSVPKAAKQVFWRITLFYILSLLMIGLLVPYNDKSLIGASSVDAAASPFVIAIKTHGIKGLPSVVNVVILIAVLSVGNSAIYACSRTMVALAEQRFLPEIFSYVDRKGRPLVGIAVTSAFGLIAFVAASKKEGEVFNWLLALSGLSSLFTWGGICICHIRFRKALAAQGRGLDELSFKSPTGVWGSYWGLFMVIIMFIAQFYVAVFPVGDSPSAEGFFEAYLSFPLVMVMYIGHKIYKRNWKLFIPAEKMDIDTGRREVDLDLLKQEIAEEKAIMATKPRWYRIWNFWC
Conditions: sigma1278b, at 5 mM
Description: Inhibition of nitrogen-starved wild type sigma1278b yeast Gap1-mediated amino acid uptake at 5 mM after 60 secs relative to L-citrulline
Non-standard residues stand in square brackets, D forms with d. Residues, ends and D or L forms follow the SMILES beside them. Hyp = O=C(O)[C@@H]1C[C@@H](O)CN1
quantity: inhibition

Look over these answered cases.
NCC(=O)NCC(=O)N[C@@H](CC(=O)O)C(=O)O (H-Gly-Gly-Asp-OH)	< 15%
COC(=O)[C@H](N)Cc1cnc[nH]1	< 15%
CC(C)[C@H](NC(=O)[C@@H](N)Cc1ccccc1)C(=O)O (H-Phe-Val-OH)	< 15%
CSCC[C@H](NC(=O)[C@@H](N)Cc1c[nH]c2ccccc12)C(=O)O (H-Trp-Met-OH)	< 15%
CC(C)C[C@H](N)C(=O)N[C@@H](CC(N)=O)C(=O)O (H-Leu-Asn-OH)	< 15%
CC(C)C[C@@H](NC(=O)CNC(=O)CN)C(=O)O	< 15%

The reported inhibition of the compound CC(C)(C)OC(=O)N[C@@H](Cc1ccccc1)C(=O)O was > 30%

The reported inhibition of the compound C[C@H](N)C(=O)N[C@H](CCC(=O)O)C(N)=O (H-Ala-[dE]-NH2) was < 15%

The reported inhibition of the compound CC(C)C[C@H](NC(=O)CN)C(=O)N1C[C@H](O)C[C@H]1C(=O)O (H-Gly-Leu-[Hyp]-OH) was < 15%

The reported inhibition of the compound C[C@H](N)C(=O)NCC(=O)O (racemic) was > 30%

---

Some molecules, each annotated with its measured inhibition.
Molecular target: General amino-acid permease GAP1 (Saccharomyces cerevisiae) (UniProt P19145)
Conditions: sigma1278b, at 5 mM
Residues, ends and D or L forms follow the SMILES beside them.

CC(C)C[C@H](N)C(=O)NCC(=O)N1CCC[C@H]1C(=O)O (H-Leu-Gly-Pro-OH)	< 15%

The reported inhibition of the molecule CSCC[C@H](NC(=O)CN)C(=O)O was < 15%

The reported inhibition of the molecule CC[C@H](C)[C@H](N)C(=O)N[C@H](C(=O)O)[C@@H](C)CC (H-Ile-Ile-OH) was < 15%

The reported inhibition of the molecule CC(C)C[C@@H](N)C(=O)N[C@@H](CC(C)C)C(=O)O was < 15%

---

Target: UniProt:P19145
Conditions: sigma1278b, at 5 mM
Residues, ends and D or L forms follow the SMILES beside them.
quantity: inhibition

Look over these answered cases.
N[C@@H](CCC(=O)O)C(=O)N[C@@H](CCC(=O)O)C(=O)O (H-Glu-Glu-OH)	< 15%
CSCC[C@H](NC(=O)[C@@H](N)[C@@H](C)O)C(=O)O (H-Thr-Met-OH)	< 15%
C[C@H](N)C(=O)N[C@@H](CO)C(=O)O (H-Ala-Ser-OH)	> 30%
CC(C)(C)OC(=O)NC1(C(=O)O)CCCC1	< 15%
COC(=O)[C@@H](N)CO	< 15%
CCOC(=O)C(N)Cc1c[nH]c2ccccc12 (racemic)	< 15%
CSCC[C@H](N)C(=O)N[C@@H](Cc1cnc[nH]1)C(=O)O (H-Met-His-OH)	< 15%
CC(C)C[C@H](NC(=O)[C@@H](N)CC(C)C)C(=O)N1CCC[C@H]1C(=O)O (H-Leu-Leu-Pro-OH)	< 15%

The reported inhibition of the compound CC(C)[C@H](N)C(N)=O was < 15%

The reported inhibition of the compound CSCC[C@H](NC(=O)[C@@H](N)Cc1cnc[nH]1)C(=O)O (H-His-Met-OH) was 15%

---

Target: General amino-acid permease GAP1 (Saccharomyces cerevisiae)
Settings: sigma1278b, at 5 mM
Non-standard residues stand in square brackets, D forms with d. Residues, ends and D or L forms follow the SMILES beside them. βAla = NCCC(=O)O
quantity: inhibition

Look over these answered cases.
CC(C)C[C@H](NC(=O)[C@@H](N)CC(C)C)C(=O)NCCC(=O)O (H-Leu-Leu-[βAla]-OH)	> 30%
CC(=O)NCCCC[C@H](NC(C)=O)C(=O)O	< 15%
CC(NC(=O)CN)C(=O)O (racemic)	15%
CC(C)[C@@H](NC(=O)OC(C)(C)C)C(=O)O	< 15%
CC(=O)N[C@@H](COC(C)(C)C)C(=O)O	< 15%

Entry CC(C)C[C@H](NC(=O)CN)C(=O)O : inhibition on General amino-acid permease GAP1 (Saccharomyces cerevisiae) = < 15%

---

Target: General amino-acid permease GAP1 (Saccharomyces cerevisiae) (UniProt P19145);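 further: amino acid uptake through Gap1 in nitrogen-starved wild-type yeast cells, measured after 60 s and expressed relative to L-citrulline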
Sequence (whole entry): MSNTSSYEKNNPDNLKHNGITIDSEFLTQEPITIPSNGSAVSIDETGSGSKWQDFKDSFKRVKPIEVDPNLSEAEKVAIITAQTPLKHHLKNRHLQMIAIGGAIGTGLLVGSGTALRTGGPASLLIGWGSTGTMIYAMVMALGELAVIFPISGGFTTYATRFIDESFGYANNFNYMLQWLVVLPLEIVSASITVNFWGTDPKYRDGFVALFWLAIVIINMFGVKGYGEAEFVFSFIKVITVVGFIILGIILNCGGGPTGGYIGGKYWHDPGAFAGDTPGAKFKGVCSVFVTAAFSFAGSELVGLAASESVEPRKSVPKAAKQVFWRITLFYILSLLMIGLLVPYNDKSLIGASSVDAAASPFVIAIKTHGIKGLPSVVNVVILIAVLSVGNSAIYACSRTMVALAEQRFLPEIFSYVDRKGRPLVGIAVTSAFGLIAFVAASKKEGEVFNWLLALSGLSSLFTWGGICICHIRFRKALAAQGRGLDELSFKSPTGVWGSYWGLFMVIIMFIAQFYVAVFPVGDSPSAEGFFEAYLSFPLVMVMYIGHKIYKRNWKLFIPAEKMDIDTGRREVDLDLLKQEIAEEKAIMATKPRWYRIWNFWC
Conditions: sigma1278b, at 5 mM
Residues, ends and D or L forms follow the SMILES beside them.
quantity: inhibition

CC(C)C[C@H](N)C(=O)N[C@@H](Cc1ccc(O)cc1)C(=O)O	> 30%
CC[C@H](C)[C@H](NC(=O)[C@H](C)N)C(=O)O (H-Ala-Ile-OH)	15%
N[C@@H](Cc1cnc[nH]1)C(=O)N[C@@H](Cc1ccccc1)C(=O)O (H-His-Phe-OH)	< 15%
O=C(O)[C@H]1CNCCN1	< 15%

The reported inhibition of the compound CC(C)(C)OC(=O)N[C@@H](CO)C(=O)O was < 15%

The reported inhibition of the compound N[C@@H](Cc1ccc(O)cc1)C(=O)N[C@@H](CCC(=O)O)C(=O)O (H-Tyr-Glu-OH) was < 15%

The reported inhibition of the compound N=C(N)NCCC[C@H](NC(=O)[C@@H](N)Cc1ccccc1)C(=O)O (H-Phe-Arg-OH) was < 15%

The reported inhibition of the compound CSCC[C@H](NC(=O)[C@@H](N)CCSC)C(=O)O (H-Met-Met-OH) was < 15%

The reported inhibition of the compound CC(C)C[C@H](NC(=O)[C@H](CC(C)C)NC(=O)[C@@H](N)C(C)C)C(=O)O (H-Val-Leu-Leu-OH) was < 15%

The reported inhibition of the compound CSCC[C@H](NC(=O)[C@H](C)N)C(=O)O (H-Ala-Met-OH) was > 30%

The reported inhibition of the compound CC(C)C[C@@H](N)C(=O)N[C@H](Cc1ccc(O)cc1)C(=O)O was < 15%

The reported inhibition of the compound CC[C@H](C)[C@H](NC(=O)OCc1ccccc1)C(=O)O was 15%

The reported inhibition of the compound C[C@@H](O)[C@H](NC(=O)OC(C)(C)C)C(=O)O was < 15%

The reported inhibition of the compound CSCC[C@H](NC(=O)OC(C)(C)C)C(=O)O was < 15%

Values were extracted from ChEMBL document CHEMBL1221220.
